Value source: PubChem BioAssay (NCI)

TGI values by entry
Tested on: SNB-75 CNS
Measurement protocol: NCI tumour cell line growth inhibition, 48 h
State just the number; it will be interpreted in µM.

Molecule	Readout number
COc1ccc2nc3cc(Cl)ccc3c(Nc3ccc(O)c(CN4CCCC4)c3)c2c1	3.79

Exam item: // Input: Cc1ccc2c(C(C[N+](=O)[O-])c3ccco3)c(-c3ccccc3)[nH]c2c1 (stereo not given) . Output its TGI only.
Marked response: 71

====

System: IGROV1 ovarian
Measurement protocol: NCI tumour cell line growth inhibition, 48 h
Measured property: TGI

Consider the following illustrative entries.
Molecule	Measured property	Result
NCCNc1nc2ccccc2c2c(=O)c3cc(F)cc(Cl)c3sc12	TGI	3.01 µM
C#CCn1cc(C=C2C(=O)NC(=S)NC2=O)c2cc(Cl)ccc21	TGI	5.1 µM
COc1ccc(C2NC(=S)NC3=C2COc2ccc(F)cc23)cc1OC (stereo unspecified)	TGI	> 100 µM

Exam item: # return recorded TGI for entry `CC(C)(C)C#CI1OC(=O)c2ccccc21`
Marked response: 12 µM
